Entries annotated with measured Kd
# Assay Target: M1 muscarinic receptor (Homo sapiens, UniProt P11229)
# Sequence (P11229 1-460): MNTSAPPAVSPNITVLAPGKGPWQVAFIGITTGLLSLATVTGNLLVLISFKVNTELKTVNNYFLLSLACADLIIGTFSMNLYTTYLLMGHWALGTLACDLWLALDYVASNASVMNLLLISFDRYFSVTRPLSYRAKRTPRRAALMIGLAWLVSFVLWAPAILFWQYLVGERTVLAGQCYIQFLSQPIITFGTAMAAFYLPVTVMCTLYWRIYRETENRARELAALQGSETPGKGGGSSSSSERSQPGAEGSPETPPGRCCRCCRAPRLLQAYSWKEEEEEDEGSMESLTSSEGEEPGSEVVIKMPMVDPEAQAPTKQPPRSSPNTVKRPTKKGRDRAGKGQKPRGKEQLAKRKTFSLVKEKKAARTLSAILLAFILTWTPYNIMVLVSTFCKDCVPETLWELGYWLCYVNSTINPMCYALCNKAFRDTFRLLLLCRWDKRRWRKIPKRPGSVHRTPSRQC
# Method Summary: accumulation of inositol phosphates IPX, M1 CHO cells (M1Gq)
# Assay type: cell-based
# Set-up: host or cells: CHO cells, stably transfected
# Condition Label: M1 (↑IPX), preferential response, Table 7; operational model; read-out: pKA (converted)
Lab book: enter the figure in µM, no units written.

Given C[N+]1(Cc2cccs2)CC=CCC1.[I-] (stereo not shown) , state its recorded Kd.
3.16

###

# Assay Target: M5 muscarinic receptor (Homo sapiens, UniProt P08912)
# Method Summary: accumulation of IPX, M5 CHO cells (M5Gq)
# Type: cell-based
# Parameters: host or cells: CHO cells, stably transfected
# Condition Label: pEC50, M5 (↑IPX), preferential response, Table 7
Observation Type: EC50
A complete answer gives the number followed by the unit.

{"Compound": "C[N+]1(Cc2ccc(Cl)s2)CC=CCC1.[I-] (centres unmarked)", "Assay Value": "9.77 µM"}

Turning now to a further compound:
Given O=C1CCCN1CC#CCN1CCCC1 [oxotremorine, reference compound] , state its recorded EC50.
0.0708 µM

###

# Assay Target: M3 muscarinic receptor (Homo sapiens, UniProt P20309)
# Sequence (P20309 whole entry): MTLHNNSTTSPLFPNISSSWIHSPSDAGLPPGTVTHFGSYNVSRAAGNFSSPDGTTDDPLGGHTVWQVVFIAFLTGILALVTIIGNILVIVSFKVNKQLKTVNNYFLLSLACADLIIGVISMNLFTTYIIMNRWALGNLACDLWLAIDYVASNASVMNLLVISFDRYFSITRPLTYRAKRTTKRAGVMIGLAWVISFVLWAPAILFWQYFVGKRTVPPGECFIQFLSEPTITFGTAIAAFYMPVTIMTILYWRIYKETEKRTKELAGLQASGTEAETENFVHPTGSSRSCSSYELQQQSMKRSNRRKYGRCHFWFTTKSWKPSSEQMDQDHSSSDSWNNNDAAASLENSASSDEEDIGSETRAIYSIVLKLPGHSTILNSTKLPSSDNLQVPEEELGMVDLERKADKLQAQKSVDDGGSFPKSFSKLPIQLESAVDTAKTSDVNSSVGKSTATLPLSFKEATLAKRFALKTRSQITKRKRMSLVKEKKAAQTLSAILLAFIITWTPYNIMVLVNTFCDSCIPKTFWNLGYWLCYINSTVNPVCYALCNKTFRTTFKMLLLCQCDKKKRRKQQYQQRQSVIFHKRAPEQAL
# Method Summary: accumulation of IPX, M3 CHO cells (M3Gq)
# Type: cell-based
# Set-up: host or cells: CHO cells, stably transfected
# Condition Label: M3 (↑IPX), preferential response, Table 7; operational efficacy
// label = 1 if τ is not less than 0.06, otherwise 0

{"Molecule": "Cc1ccc(C[N+]2(C)CC=CCC2)s1.[I-] (stereo not shown) [Compound 7B]", "Assigned Label": 1}

Could you tell me if the measured τ of C[N+]1(Cc2ccc(Cl)s2)CC=CCC1.[I-] (stereo not shown) [Compound 7D] reaches 0.06 or more?
0

Entry to check: C[N+]1(Cc2cccs2)CC=CCC1.[I-] (stereo not shown) [Compound 7A]
1

Entry to check: Cc1ccc(CN2CC=CCC2)s1.Cl [Compound 6B]
0

Entry to check: C[N+]1(Cc2ccc(Br)s2)CC=CCC1.[I-] (stereo not shown) [Compound 7C]
0

Entry to check: Brc1ccc(CN2CC=CCC2)s1.Cl [Compound 6C]
0

###

# Assay Target: M5 muscarinic receptor (Homo sapiens, UniProt P08912)
# Sequence (P08912 1-532): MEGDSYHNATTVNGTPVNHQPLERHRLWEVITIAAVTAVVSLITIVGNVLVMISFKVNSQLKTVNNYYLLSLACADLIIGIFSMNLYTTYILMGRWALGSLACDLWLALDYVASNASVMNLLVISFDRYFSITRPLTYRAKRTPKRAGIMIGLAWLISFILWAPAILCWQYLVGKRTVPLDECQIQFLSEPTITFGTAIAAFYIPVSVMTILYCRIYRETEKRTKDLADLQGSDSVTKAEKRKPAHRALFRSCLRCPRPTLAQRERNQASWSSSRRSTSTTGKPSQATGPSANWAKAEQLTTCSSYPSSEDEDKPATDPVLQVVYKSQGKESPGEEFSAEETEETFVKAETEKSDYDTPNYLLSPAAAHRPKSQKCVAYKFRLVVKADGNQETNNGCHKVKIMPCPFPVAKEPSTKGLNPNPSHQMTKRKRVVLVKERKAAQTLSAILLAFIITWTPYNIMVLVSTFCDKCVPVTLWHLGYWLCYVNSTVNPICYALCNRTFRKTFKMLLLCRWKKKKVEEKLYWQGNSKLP
# Method Summary: accumulation of IPX, M5 CHO cells (M5Gq)
# Assay type: cell-based
# Design: host or cells: CHO cells, stably transfected
# Condition Label: M5 (↑IPX), preferential response, Table 7; read-out: pEC50 (converted)
Observation Type: EC50
A complete answer gives the number followed by the unit.

Given `Brc1ccc(CN2CC=CCC2)s1.Cl` , state its recorded EC50.
7.59 µM

Entry to check: C[N+]1(Cc2ccc(Br)s2)CC=CCC1.[I-] (stereo not drawn)
3.16 µM

Entry to check: `Cc1ccc(CN2CC=CCC2)s1.Cl`
15.1 µM

Entry to check: C[N+]1(Cc2cccs2)CC=CCC1.[I-] (stereo not drawn)
7.94 µM

Entry to check: `C1=CCN(Cc2cccs2)CC1.Cl`
1.58 µM

Entry to check: Cc1ccc(C[N+]2(C)CC=CCC2)s1.[I-] (stereo not drawn)
4.37 µM

###

# Assay Target: M2 muscarinic receptor (Homo sapiens, UniProt P08172)
# Method Summary: [3H]NMS competition binding, M2 CHO membranes
# Parameters: host or cells: CHO cells, stably transfected
# Condition Label: Inhibition constants (KI) as negative logarithms, M2, low site, reference agonists, low affinity site
Observation Type: pKi
// pKi: -log10(molar conc.)

Given O=C1CCCN1CC#CCN1CCCC1 [oxotremorine, reference compound] , state its recorded pKi.
6.24

###

# Assay Target: M1 muscarinic receptor (Homo sapiens, UniProt P11229)
# Method Summary: stimulation of cAMP, M1 CHO cells (M1Gs)
# Assay type: cell-based
# Parameters: host or cells: CHO cells, stably transfected
Observation Type: Kd (µM)
Lab book: enter the figure in µM, no units written.

Give Kd (M1 muscarinic receptor (Homo sapiens, UniProt P11229)) of the following compound: O=C1CCCN1CC#CCN1CCCC1 [oxotremorine, reference compound]
15.8

###

# Assay Target: M5 muscarinic receptor (Homo sapiens, UniProt P08912)
# Method Summary: accumulation of IPX, M5 CHO cells (M5Gq)
# Assay type: cell-based
# Design: host or cells: CHO cells, stably transfected
# Condition Label: pEC50, M5Gq (↑IPX), Table 8
Observation Type: pEC50
// pEC50: -log10(molar conc.)

Given O=C1CCCN1CC#CCN1CCCC1 [oxotremorine, reference compound] , state its recorded pEC50.
7.13

###

# Assay Target: UniProt:P08173
# Sequence (P08173 whole entry): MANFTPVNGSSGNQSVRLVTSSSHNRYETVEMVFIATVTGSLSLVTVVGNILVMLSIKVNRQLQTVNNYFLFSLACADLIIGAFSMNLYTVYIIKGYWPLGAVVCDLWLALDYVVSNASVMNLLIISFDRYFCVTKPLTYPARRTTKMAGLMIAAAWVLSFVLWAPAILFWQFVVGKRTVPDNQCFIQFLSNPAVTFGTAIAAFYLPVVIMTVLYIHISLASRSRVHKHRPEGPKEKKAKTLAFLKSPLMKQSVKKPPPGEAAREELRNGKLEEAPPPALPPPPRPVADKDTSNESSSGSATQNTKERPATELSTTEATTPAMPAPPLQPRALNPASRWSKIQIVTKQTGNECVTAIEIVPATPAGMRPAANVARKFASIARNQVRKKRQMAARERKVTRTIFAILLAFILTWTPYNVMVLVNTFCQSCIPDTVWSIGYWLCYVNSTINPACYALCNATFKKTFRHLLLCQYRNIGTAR
# Method Summary: inhibition of forskolin-stimulated cAMP, M4 CHO cells (M4Gi)
# Assay type: cell-based
# Set-up: host or cells: CHO cells, stably transfected
# Condition Label: M4 (↓cAMP), preferential response, relative to carbachol; Tables 2, 3, 7
// label = t if RAi is not less than 0.004, otherwise f

{"Molecule": "C1=CCN(Cc2cccs2)CC1.Cl [Compound 6A]", "Assigned Label": "t"}
{"Molecule": "C[N+]1(Cc2ccc(Br)s2)CC=CCC1.[I-] (stereo not drawn) [Compound 7C]", "Assigned Label": "f"}
{"Molecule": "O=C1CCCN1CC#CCN1CCCC1 [oxotremorine, reference compound]", "Assigned Label": "t"}
{"Molecule": "C[N+]1(Cc2ccc(Cl)s2)CC=CCC1.[I-] (stereo not drawn) [Compound 7D]", "Assigned Label": "t"}
{"Molecule": "C[N+]1(Cc2cccs2)CC=CCC1.[I-] (stereo not drawn) [Compound 7A]", "Assigned Label": "t"}
{"Molecule": "Cc1csc(CN2CC=CCC2)c1.Cl [Compound 6E]", "Assigned Label": "f"}
{"Molecule": "Cc1ccc(CN2CC=CCC2)s1.Cl [Compound 6B]", "Assigned Label": "f"}

For the next question, use this molecule.
Could you tell me if the measured RAi of Cc1ccc(C[N+]2(C)CC=CCC2)s1.[I-] (stereo not drawn) [Compound 7B] reaches 0.004 or more?
t

###

# Assay Target: M3 muscarinic receptor (Homo sapiens)
# Method Summary: stimulation of cAMP, M3 CHO cells (M3Gs)
# Assay type: cell-based
# Set-up: host or cells: CHO cells, stably transfected
Observation Type: Kd (µM)
Lab book: enter the figure in µM, no units written.

Given O=C1CCCN1CC#CCN1CCCC1 [oxotremorine, reference compound] , state its recorded Kd.
3.98

###

Entries annotated with measured Δlog(τ/KA)
# Assay Target: M2 muscarinic receptor (Homo sapiens)
# Sequence (P08172 1-466): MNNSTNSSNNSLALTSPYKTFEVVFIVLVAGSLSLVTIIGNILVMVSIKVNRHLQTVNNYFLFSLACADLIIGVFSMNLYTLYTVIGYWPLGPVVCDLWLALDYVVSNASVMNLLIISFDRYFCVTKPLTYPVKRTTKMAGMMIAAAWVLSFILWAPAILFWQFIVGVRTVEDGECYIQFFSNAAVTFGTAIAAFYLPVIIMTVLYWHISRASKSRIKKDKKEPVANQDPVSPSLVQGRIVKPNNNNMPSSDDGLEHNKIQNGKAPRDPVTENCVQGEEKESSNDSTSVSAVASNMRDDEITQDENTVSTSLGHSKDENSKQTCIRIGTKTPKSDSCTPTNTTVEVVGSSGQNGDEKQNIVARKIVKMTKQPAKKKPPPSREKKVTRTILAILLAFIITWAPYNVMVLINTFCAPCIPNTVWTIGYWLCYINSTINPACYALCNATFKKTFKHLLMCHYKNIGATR
# Method Summary: inhibition of forskolin-stimulated cAMP, M2 CHO cells (M2Gi)
# Type: cell-based
# Design: host or cells: CHO cells, stably transfected
# Condition Label: M2 (↓cAMP), preferential response, to carbachol; Tables 2, 3, 7
Number only, no unit.

Here are 5 compounds together with their reported answers.
{"Compound": "C[N+]1(Cc2ccc(Br)s2)CC=CCC1.[I-] (stereo not shown) [Compound 7C]", "Δlog(τ/KA)": 1.69}
{"Compound": "Brc1ccc(CN2CC=CCC2)s1.Cl [Compound 6C]", "Δlog(τ/KA)": 2.02}
{"Compound": "Cc1ccc(CN2CC=CCC2)s1.Cl [Compound 6B]", "Δlog(τ/KA)": 2.35}
{"Compound": "Cc1ccc(C[N+]2(C)CC=CCC2)s1.[I-] (stereo not shown) [Compound 7B]", "Δlog(τ/KA)": 1.48}
{"Compound": "C[N+]1(Cc2ccc(Cl)s2)CC=CCC1.[I-] (stereo not shown) [Compound 7D]", "Δlog(τ/KA)": 2.05}

Given C[N+](C)(C)CCOC(N)=O [carbachol, reference compound] , state its recorded Δlog(τ/KA).
0

Entry to check: O=C1CCCN1CC#CCN1CCCC1 [oxotremorine, reference compound]
−0.81

The origin of these recorded values is patent US11591323B2.
